System: Saos-2 cell line
assay summary: MTT assay, toxicity (cell viability), Saos-2
Assay type: cell-based
recorded conditions: Saos-2, 24 h, 5 μM
Let's look at some compounds and their measured % Cell viability.
Give the quantity in %, number only.

# compound, % Cell viability [%]
data = [
    ("CC(=O)NCCNC(=O)CNC(=O)C1CC(=O)N(CCc2ccc(Cl)cc2Cl)CC(=O)N1CCC(c1ccccc1)c1ccccc1 (stereo not shown)", 93),
    ("NC(=O)CN(CCc1ccccc1F)C(=O)C1CC(=O)N(CCc2ccc(Cl)cc2Cl)CC(=O)N1CCC(c1ccccc1)c1ccccc1 (stereo not shown)", 96),
    ("NC(=O)CN(CCc1ccc(Cl)cc1Cl)C(=O)C1CC(=O)N(CCc2ccc(Cl)cc2Cl)CC(=O)N1CCC(c1ccccc1)c1ccccc1 (stereo not shown)", 100),
    ("NC(=O)CN(CCc1ccc(Cl)cc1)C(=O)C1CC(=O)N(CCc2ccc(Cl)cc2Cl)CC(=O)N1CCC(c1ccccc1)c1ccccc1 (stereo not shown)", 100),
    ("NC(=O)CN(CCc1ccc(F)cc1)C(=O)C1CC(=O)N(CCc2ccc(Cl)cc2Cl)CC(=O)N1CCC(c1ccccc1)c1ccccc1 (stereo not shown)", 100),
    ("NC(=O)CN(CC1CCCO1)C(=O)C1CC(=O)N(CCc2ccc(Cl)cc2Cl)CC(=O)N1CCC(c1ccccc1)c1ccccc1 (stereo not shown)", 97),
    ("NC(=O)CN(C(=O)C1CC(=O)N(CCc2ccc(Cl)cc2Cl)CC(=O)N1CCC(c1ccccc1)c1ccccc1)C1CC1 (stereo not shown)", 99),
    ("NCCCCC(NC(=O)CN(CCc1ccc(Cl)cc1Cl)C(=O)C1CC(=O)N(CCc2ccc(Cl)cc2Cl)CC(=O)N1CCC(c1ccccc1)c1ccccc1)C(N)=O (stereo not shown)", 100),
]

Ask: Give % Cell viability for CCCCN(CC(N)=O)C(=O)C1CC(=O)N(CCc2ccc(Cl)cc2Cl)CC(=O)N1CCC(c1ccccc1)c1ccccc1 (stereo not shown)
Result: 98

Ask: Consider the compound COc1ccccc1CCN(CC(N)=O)C(=O)C1CC(=O)N(CCc2ccc(Cl)cc2Cl)CC(=O)N1CCC(c1ccccc1)c1ccccc1 (stereo not shown) and give its recorded % Cell viability.
Result: 99

----------
Listing of entries alongside the reported % Cell viability.
Test system: Saos-2 cell line
assay summary: MTT assay, toxicity (cell viability), Saos-2
Format: cell-based
recorded conditions: Saos-2, 24 h, 1 μM
Could you give me the number in %? Just the number is fine.

# compound, unit, % Cell viability
rows = [
    ("CC(=O)NCCNC(=O)CNC(=O)C1CC(=O)N(CCc2ccc(Cl)cc2Cl)CC(=O)N1CCC(c1ccccc1)c1ccccc1 (stereo not drawn) [I.3]", "%", 97),
    ("NC(=O)CN(C(=O)C1CC(=O)N(CCc2ccc(Cl)cc2Cl)CC(=O)N1CCC(c1ccccc1)c1ccccc1)C1CC1 (stereo not drawn) [I.2]", "%", 100),
]

Kindly review the next compound as well.
Ask: Specify reported % Cell viability for the compound shown: NC(=O)CN(CC1CCCO1)C(=O)C1CC(=O)N(CCc2ccc(Cl)cc2Cl)CC(=O)N1CCC(c1ccccc1)c1ccccc1 (stereo not drawn) [I.4]
Result: 100

----------
Tested on: U937 cell line
assay summary: MTT assay, toxicity (cell viability), U937
Type: cell-based
recorded conditions: U937, 48 h, 5 μM
assay readout: % Cell viability (%)
Write down the numeric answer in % and omit the unit.

Below are worked cases with known answers.
# compound, assay readout, reported measurement
records = [
    ("NC(=O)CN(CCc1ccccc1F)C(=O)C1CC(=O)N(CCc2ccc(Cl)cc2Cl)CC(=O)N1CCC(c1ccccc1)c1ccccc1 (centres unmarked) [I.9]", "% Cell viability", 69),
    ("NC(=O)CN(C(=O)C1CC(=O)N(CCc2ccc(Cl)cc2Cl)CC(=O)N1CCC(c1ccccc1)c1ccccc1)C1CC1 (centres unmarked) [I.2]", "% Cell viability", 99),
]

Ask: Provide one value: measured % Cell viability of NC(=O)CN(CC1CCCO1)C(=O)C1CC(=O)N(CCc2ccc(Cl)cc2Cl)CC(=O)N1CCC(c1ccccc1)c1ccccc1 (centres unmarked) [I.4]
Result: 94

----------
# % Cell viability annotations
Tested on: U937 cell line
assay summary: MTT assay, toxicity (cell viability), U937
Format: cell-based
recorded conditions: U937, 24 h, 1 μM
Just the number please, in %, no unit attached.

# compound, % Cell viability, %
rows = [
    ("CC(=O)NCCNC(=O)CNC(=O)C1CC(=O)N(CCc2ccc(Cl)cc2Cl)CC(=O)N1CCC(c1ccccc1)c1ccccc1 (centres unmarked)", 100),
    ("NC(=O)CN(CC1CCCO1)C(=O)C1CC(=O)N(CCc2ccc(Cl)cc2Cl)CC(=O)N1CCC(c1ccccc1)c1ccccc1 (centres unmarked)", 100),
    ("NC(=O)CN(C(=O)C1CC(=O)N(CCc2ccc(Cl)cc2Cl)CC(=O)N1CCC(c1ccccc1)c1ccccc1)C1CC1 (centres unmarked)", 100),
]

Ask: Indicate the recorded % Cell viability value for this compound: NC(=O)CN(CCc1ccc(F)cc1)C(=O)C1CC(=O)N(CCc2ccc(Cl)cc2Cl)CC(=O)N1CCC(c1ccccc1)c1ccccc1 (centres unmarked)
Result: 96

Ask: State its % Cell viability for this compound: NC(=O)CN(CCc1ccc(Cl)cc1)C(=O)C1CC(=O)N(CCc2ccc(Cl)cc2Cl)CC(=O)N1CCC(c1ccccc1)c1ccccc1 (centres unmarked)
Result: 100

----------
System: Saos-2 cell line
assay summary: MTT assay, toxicity (cell viability), Saos-2
Assay type: cell-based
recorded conditions: Saos-2, 24 h, 1 μM
assay readout: % Cell viability
Answer with the number, then the unit.

# compound, assay readout, reported measurement
measured = [
    ("NC(=O)CN(CCc1ccc(F)cc1)C(=O)C1CC(=O)N(CCc2ccc(Cl)cc2Cl)CC(=O)N1CCC(c1ccccc1)c1ccccc1 (stereo not shown)", "% Cell viability", "76%"),
    ("NC(=O)CN(CCc1ccc(Cl)cc1Cl)C(=O)C1CC(=O)N(CCc2ccc(Cl)cc2Cl)CC(=O)N1CCC(c1ccccc1)c1ccccc1 (stereo not shown)", "% Cell viability", "99%"),
    ("CCCCN(CC(N)=O)C(=O)C1CC(=O)N(CCc2ccc(Cl)cc2Cl)CC(=O)N1CCC(c1ccccc1)c1ccccc1 (stereo not shown)", "% Cell viability", "100%"),
]

Shift focus to the following entry.
Ask: Recall the reported % Cell viability of NC(=O)CN(CCc1ccc(Cl)cc1)C(=O)C1CC(=O)N(CCc2ccc(Cl)cc2Cl)CC(=O)N1CCC(c1ccccc1)c1ccccc1 (stereo not shown) when tested on Saos-2 cell line.
Result: 100%

----------
The following compounds are listed with their measured % Cell viability values.
Test system: U937 cell line
assay summary: MTT assay, toxicity (cell viability), U937
Type: cell-based
recorded conditions: U937, 24 h, 1 μM
Give just the numeric value; % need not be written.

Reference set (3 entries):
# compound, reported measurement
rows = [
    ("NC(=O)CN(CCc1ccc(Cl)cc1Cl)C(=O)C1CC(=O)N(CCc2ccc(Cl)cc2Cl)CC(=O)N1CCC(c1ccccc1)c1ccccc1 (stereo not shown)", 100),
    ("COc1ccccc1CCN(CC(N)=O)C(=O)C1CC(=O)N(CCc2ccc(Cl)cc2Cl)CC(=O)N1CCC(c1ccccc1)c1ccccc1 (stereo not shown)", 99),
    ("CCCCN(CC(N)=O)C(=O)C1CC(=O)N(CCc2ccc(Cl)cc2Cl)CC(=O)N1CCC(c1ccccc1)c1ccccc1 (stereo not shown)", 100),
]

Here is another compound to look at.
Ask: Item NC(=O)CN(CCc1ccccc1F)C(=O)C1CC(=O)N(CCc2ccc(Cl)cc2Cl)CC(=O)N1CCC(c1ccccc1)c1ccccc1 (stereo not shown) : provide % Cell viability
Result: 100

----------
Test system: U937 cell line
assay summary: MTT assay, toxicity (cell viability), U937
Assay type: cell-based
recorded conditions: U937, 24 h, 10 μM
Decision: % Cell viability beneath 90% gives T; % Cell viability meeting or exceeding 90% gives F.

Use the examples below as a reference point.
# molecule, cat
rows = [
    ("CCCCN(CC(N)=O)C(=O)C1CC(=O)N(CCc2ccc(Cl)cc2Cl)CC(=O)N1CCC(c1ccccc1)c1ccccc1 (centres unmarked) [I.11]", "T"),
    ("NC(=O)CN(CCc1ccc(Cl)cc1)C(=O)C1CC(=O)N(CCc2ccc(Cl)cc2Cl)CC(=O)N1CCC(c1ccccc1)c1ccccc1 (centres unmarked) [I.8]", "F"),
    ("NC(=O)CN(CC1CCCO1)C(=O)C1CC(=O)N(CCc2ccc(Cl)cc2Cl)CC(=O)N1CCC(c1ccccc1)c1ccccc1 (centres unmarked) [I.4]", "T"),
]

Ask: Strictly below 90%: is that where % Cell viability of CC(=O)NCCNC(=O)CNC(=O)C1CC(=O)N(CCc2ccc(Cl)cc2Cl)CC(=O)N1CCC(c1ccccc1)c1ccccc1 (centres unmarked) [I.3] sits?
Result: F

Ask: Check if % Cell viability falls below 90% for COc1ccccc1CCN(CC(N)=O)C(=O)C1CC(=O)N(CCc2ccc(Cl)cc2Cl)CC(=O)N1CCC(c1ccccc1)c1ccccc1 (centres unmarked) [I.7] .
Result: F

Ask: Here's an entry: NC(=O)CN(C(=O)C1CC(=O)N(CCc2ccc(Cl)cc2Cl)CC(=O)N1CCC(c1ccccc1)c1ccccc1)C1CC1 (centres unmarked) [I.2] . Is its % Cell viability below 90%?
Result: F

Each recorded value in this set is attributed to patent US20090298781A1.
